Reference source for all entries: paper PMC11058299

system: opioid receptors (tail flicking latency); assay: Assessment of opioid mechanism via tail immersion test with Naloxone; type: in vivo; conditions: 20 mg/kg + Naloxone 2 mg/kg, mice, control 3.31 ± 0.44
Reported Latency response 90 min by item:
No unit in the answer, please; the number alone is enough.

Answered cases to consult:
molecule: O=C1C(=Cc2ccc(F)cc2)Oc2ccccc21 [WE-7]
Latency response 90 min: 5.01
--
molecule: COc1ccc(C=C2Oc3ccccc3C2=O)cc1OC [WE-4]
Latency response 90 min: 4.80
--
molecule: O=C1C(=Cc2ccc(Cl)cc2)Oc2ccccc21 [WE-2]
Latency response 90 min: 4.59

Consider now this further molecule.
Which Latency response 90 min is reported for this molecule? COc1ccc(C=C2Oc3ccccc3C2=O)cc1 [WE-3] 5.14

====

target: COX-2 enzyme (Homo sapiens); construct: purchased Sigma Aldrich; experiment: COX-2 inhibitory assay; assay type: biochemical; settings: Table 2
Sequence (P35354 18-604): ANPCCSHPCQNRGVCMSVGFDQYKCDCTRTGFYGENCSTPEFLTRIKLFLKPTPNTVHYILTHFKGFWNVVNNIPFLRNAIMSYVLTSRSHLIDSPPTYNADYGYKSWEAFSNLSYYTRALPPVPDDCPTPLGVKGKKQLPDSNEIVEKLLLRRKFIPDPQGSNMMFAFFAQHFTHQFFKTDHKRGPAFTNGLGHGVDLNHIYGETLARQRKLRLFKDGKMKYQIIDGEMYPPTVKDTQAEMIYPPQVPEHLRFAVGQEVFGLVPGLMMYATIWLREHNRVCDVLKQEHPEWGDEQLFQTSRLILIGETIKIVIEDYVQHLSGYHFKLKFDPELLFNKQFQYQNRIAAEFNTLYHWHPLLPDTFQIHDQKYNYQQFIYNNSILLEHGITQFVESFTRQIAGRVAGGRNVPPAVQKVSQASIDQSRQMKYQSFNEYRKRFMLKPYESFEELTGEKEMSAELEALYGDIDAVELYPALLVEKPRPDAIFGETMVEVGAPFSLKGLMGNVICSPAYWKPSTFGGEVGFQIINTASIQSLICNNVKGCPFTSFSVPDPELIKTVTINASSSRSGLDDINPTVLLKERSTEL
measurement-type: IC50 (µM)
// return numeric value only (unit: µM, not printed)

Example compounds with recorded IC50:
compound-string: O=C(O)c1ccc(C=C2Oc3ccccc3C2=O)cc1
measurement-type: IC50
unit-of-measure: µM
quantitative-readout: 1.21

compound-string: COc1ccc(C=C2Oc3ccccc3C2=O)cc1
measurement-type: IC50
unit-of-measure: µM
quantitative-readout: 0.47

compound-string: COc1ccc(C=C2Oc3ccccc3C2=O)cc1OC
measurement-type: IC50
unit-of-measure: µM
quantitative-readout: 0.22

compound-string: O=C1C(=Cc2ccc(F)cc2)Oc2ccccc21
measurement-type: IC50
unit-of-measure: µM
quantitative-readout: 0.63

compound-string: O=Cc1ccc(C=C2Oc3ccccc3C2=O)cc1
measurement-type: IC50
unit-of-measure: µM
quantitative-readout: 1.13

compound-string: O=C1C(=Cc2ccccc2)Oc2ccccc21
measurement-type: IC50
unit-of-measure: µM
quantitative-readout: 1.27

For the next question, use this compound.
I have this compound here, `O=C1C(=Cc2ccc(Cl)cc2)Oc2ccccc21` , and I need its recorded IC50. 0.82

====

tested on: opioid receptors (tail flicking latency); experiment: Assessment of opioid mechanism via tail immersion test with Naloxone; format: in vivo; details: 20 mg/kg + Naloxone 2 mg/kg, mice, control 3.17 ± 0.41
measurement-type: Latency response 60 min

Worked examples, 3 molecules total:
compound-string: O=C1C(=Cc2ccc(F)cc2)Oc2ccccc21
Latency response 60 min: 4.35 ± 0.61

compound-string: O=C1C(=Cc2ccc(Cl)cc2)Oc2ccccc21
Latency response 60 min: 4.30 ± 0.51

compound-string: COc1ccc(C=C2Oc3ccccc3C2=O)cc1OC
Latency response 60 min: 4.67 ± 0.60

Could you now consider this next molecule?
Name the reported Latency response 60 min value associated with the molecule `COc1ccc(C=C2Oc3ccccc3C2=O)cc1` 4.76 ± 0.51
